Source listed as the supplement of paper PMC10567573.

B1: CAMK2D (parent)
chain: LLKHPNIVRLHDSISEEGFHYLVF

# Variants of: B1
# ASSAY OVERVIEW: protein stability index of a GFP-peptide fusion (GPS, HEK-293T) (PSI 1-6); higher = more stable;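 further: lentivirally expressed fusions sorted by FACS into six bins by GFP to DsRed ratio, PSI derived from sequencing read proportions per bin multiplied by bin number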
# MEASUREMENT CONTEXT: c terminus: a fixed tail appended
EXPERIMENTAL ENDPOINT: protein stability index

E17Y :: 2.04
L10Y :: 2.95

[Q] I'd like to know its protein stability index. The variant in question is F24L
[A] 2.94

[Q] Consider the variant shown here: S15I What is its recorded protein stability index?
[A] 3.54

[Q] Please look up its protein stability index: P5L
[A] 3.34
